Entries and their fluorescence lifetime values follow.
- Protocol: solvent given as SMILES
- Experimental Context: in C1CCCCC1
Output spec: scalar in ns, unitless text.

Answered cases to consult:
| Molecule | fluorescence lifetime (ns) |
| --- | --- |
| COc1ccc(C2=C3C=c4c(oc5ccccc45)=[N+]3[B-](F)(F)n3c2cc2c4ccccc4oc23)cc1 | 4.1 |
| CSC1=C2C=C(c3cc4n(c3)[B-](F)(F)[N+]3=CC=CC3=C4c3c(C)cc(C)cc3C)C(C)=[N+]2[B-](F)(F)n2c(C)ccc21 | 2.67 |
| Nc1ccc2cn[nH]c2c1 | 4 |
| COc1cc(OC)c2c(c1)C(=O)c1ccccc1-2 | 5.8 |
| F[B-]1(F)n2c(Nc3cccc4cccnc34)ccc2C(c2ccccc2)=C2C=CC(Cl)=[N+]21 | 3.21 |

For the molecule shown here, COc1c2ccccc2c(OC)c2c1c1cc(Cl)ccc1n2C , give the reported fluorescence lifetime.
21.2

Would you kindly share the measured fluorescence lifetime for Cc1ccc(C2=C3C=CC(/C=C/c4ccccc4)=[N+]3[B-](F)(F)n3c(/C=C/c4ccccc4)ccc32)cc1 ?
4.37

I am curious: what fluorescence lifetime value has been reported for Nc1ccc2c(c1)C(=O)c1ccccc1-2 ?
4

Given the molecule F[B-]1(F)n2c(cc3c4ccccc4oc32)C(c2ccccc2)=C2C=c3c(oc4ccccc34)=[N+]21 , what is its reported fluorescence lifetime?
3.99

# query: fluorescence lifetime of entry CC1=[N+]2C(=C(Oc3ccc4c(c3)CC[C@@H]3[C@@H]4CC[C@]4(C)C(=O)CC[C@@H]34)c3ccc(C)n3[B-]2(F)F)C=C1c1cc2n(c1)[B-](F)(F)[N+]1=CC=CC1=C2c1c(C)cc(C)cc1C
2.7

Can you look up the measured fluorescence lifetime of CNc1cccc2c1C(=O)c1ccccc1C2=O for me?
0.443

State the recorded fluorescence lifetime for this entry: Nc1ccc2[nH]ncc2c1
4.9

Which fluorescence lifetime value is on record for c1ccc(-c2nn(-c3ccccc3)c3nc4ccc(-n5c6ccccc6c6ccccc65)cc4cc23)cc1 ?
17.6

Tell me the measured fluorescence lifetime of CN(C)c1ccc2nc(-c3ccc(C(=O)OC[C@H](NC(=O)OC(C)(C)C)C(=O)OCc4ccccc4)cc3)sc2c1 , please.
2.4

// fluorescence lifetime lookup, key: Nc1ccc2ccc3cccc4ccc1c2c34
5.6

// query fluorescence lifetime value for entry CN(C)C(=O)c1ccc(-c2nc3ccc(N(C)C)cc3s2)cc1
2

What does the data say about its fluorescence lifetime? Entry: O=c1cc(C(F)(F)F)c2cc3c4c(c2o1)CCCN4CCC3
4.3

Form field: reported fluorescence lifetime of CC(C)[Si]1(C(C)C)c2cc(N(C)C)ccc2-c2ccc(C(F)(F)F)cc21
3.3

Which value of fluorescence lifetime has been reported for CCCCN1/C(=C\c2c(-c3ccc(N(C)C)cc3)c(=O)c2=O)C=Cc2ccccc21 in the records?
1.06

Look up fluorescence lifetime for this molecule: CCCCC1=Cc2c3ccc4cccc5ccc(c6cc(-c7ccccc7)n(c26)P1(=O)c1ccccc1)c3c45 (stereo not drawn)
1.9

Given CCCCc1cc2cccc[n+]2[b-]2ccc(-c3cc[b-]4c(c3)c(CCCC)cc3cccc[n+]43)cc21 , state its recorded fluorescence lifetime.
3.5

Could you tell me which fluorescence lifetime is on file for CCCCCCC(CCCCCC)n1c(=O)c2c3ccc4cccc5c6cccc7ccc(c2c1=O)c(c76)c3c45 ?
10.5

Field request: fluorescence lifetime | item: CCC1=C(C)C2=C(C)c3c(I)c(I)cn3[B-](F)(F)[N+]2=C1C
0.259

Tell me the measured fluorescence lifetime of CCCCCCCC[Si](C)(C)c1cccc2ccccc12 , please.
62

Which fluorescence lifetime is listed for CN(C)c1ccccc1 ?
3

I would be grateful if you could share the reported fluorescence lifetime for CN(C)c1ccc2nc3c(cc2c1)c(-c1ccccc1)nn3-c1ccccc1 .
16.1

What value of fluorescence lifetime has been recorded for this entry: CCOC(=O)C(C(=O)OCC)C1=[N+]2C(=C(c3ccc(C)cc3)c3ccc(Cl)n3[B-]2(F)F)C=C1
2.69

Which fluorescence lifetime value is on record for Cc1ccccc1C1=C2C=c3c(oc4ccc(C(C)(C)C)cc34)=[N+]2[B-](F)(F)n2c1cc1c3cc(C(C)(C)C)ccc3oc12 ?
4.11

Consider the molecule CC1=[N+]2C(=C(NC(C)c3ccccc3)c3ccc(C)n3[B-]2(F)F)C=C1c1cc2n(c1)[B-](F)(F)[N+]1=CC=CC1=C2c1c(C)cc(C)cc1C (stereo not drawn) and give its measured fluorescence lifetime.
2.07

All values here come from the Deep4Chem optical property database.
